Numbers sourced from ChEMBL document CHEMBL3988442.

- Target entity: Aspartate--tRNA(Asp/Asn) ligase (Mycobacterium tuberculosis (strain ATCC 25618 / H37Rv)) (UniProt P9WFW3); further: in the data most compounds retested in dose-response had high values
- Sequence (P9WFW3 whole entry): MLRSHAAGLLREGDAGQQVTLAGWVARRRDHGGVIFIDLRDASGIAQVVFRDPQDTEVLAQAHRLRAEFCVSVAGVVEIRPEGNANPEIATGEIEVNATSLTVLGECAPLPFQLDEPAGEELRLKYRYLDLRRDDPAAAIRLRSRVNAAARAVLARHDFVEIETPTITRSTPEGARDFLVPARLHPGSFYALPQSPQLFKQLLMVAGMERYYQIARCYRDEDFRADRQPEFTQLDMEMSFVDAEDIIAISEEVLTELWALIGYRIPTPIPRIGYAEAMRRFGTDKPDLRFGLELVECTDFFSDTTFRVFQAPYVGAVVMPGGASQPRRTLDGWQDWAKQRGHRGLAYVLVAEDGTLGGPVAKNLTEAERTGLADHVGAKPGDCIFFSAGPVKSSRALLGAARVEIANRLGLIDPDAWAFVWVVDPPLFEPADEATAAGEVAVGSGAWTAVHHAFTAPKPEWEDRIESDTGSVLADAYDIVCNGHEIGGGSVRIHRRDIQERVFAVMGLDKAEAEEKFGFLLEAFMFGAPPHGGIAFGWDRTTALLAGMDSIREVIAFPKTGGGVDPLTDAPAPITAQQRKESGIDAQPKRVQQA
- Assay explanation: Assay for Asp RNA synthetase-1 from Mycobacterium tuberculosis
- Assay type: functional
- Parameters: scale not given: direction of the effect not stated beside the values
- Protocol conditions: 30 µM
Listed below: Percent Effect values for each entry.
Property name: Percent Effect (%)

[[record]]
molecule = "CN(C)c1cc(C(=O)NCCc2n[nH]c(=O)[nH]2)ccn1"
value = 0.719

[[record]]
molecule = "CNc1ccc(CC2CCCN(C(=O)c3cnc(C)nc3)C2)nn1 (stereo unspecified)"
value = 1.57

[[record]]
molecule = "Cc1nccn1-c1cccc(C2CCCN(C(=O)c3cc[nH]n3)C2)n1 (stereo unspecified)"
value = -0.309

[[record]]
molecule = "Cc1cccc(C(=O)NCCCN2CCN(c3ccccc3)CC2)c1"
value = 0.86

[[record]]
molecule = "COc1ccc(CC(=O)N2CCCN(c3ccc(C#N)cc3)CC2)cc1"
value = 5.93

[[record]]
molecule = "O=C(CCN1CCCN(c2nccs2)CC1)NCC1CCCCC1"
value = -3.75

[[record]]
molecule = "CCn1ncc(CN2CCc3c(nc(-c4cccnc4)[nH]c3=O)C2)c1C"
value = -5.25

[[record]]
molecule = "CCC1CN(C(=O)c2ccc(Cl)cc2O)CCN1C(C)C (stereo unspecified)"
value = -3.56

[[record]]
molecule = "CN(CCNC(=O)N1CCN(Cc2ccon2)CC1)c1ccccc1"
value = 2.1

[[record]]
molecule = "Cc1nc(C)n(CC2CN(Cc3cccc(C(N)=O)c3)CCO2)n1 (stereo unspecified)"
value = 4.41

[[record]]
molecule = "CCn1cc(CNC2CC(=O)N(CCc3cccc(Cl)c3)C2)cn1 (stereo unspecified)"
value = -2.05


###

- Target entity: Ubiquitin-activating enzyme e1, putative (Leishmania donovani (strain BPK282A1)) (UniProt E9BSI1)
- Sequence (E9BSI1 as listed by the source): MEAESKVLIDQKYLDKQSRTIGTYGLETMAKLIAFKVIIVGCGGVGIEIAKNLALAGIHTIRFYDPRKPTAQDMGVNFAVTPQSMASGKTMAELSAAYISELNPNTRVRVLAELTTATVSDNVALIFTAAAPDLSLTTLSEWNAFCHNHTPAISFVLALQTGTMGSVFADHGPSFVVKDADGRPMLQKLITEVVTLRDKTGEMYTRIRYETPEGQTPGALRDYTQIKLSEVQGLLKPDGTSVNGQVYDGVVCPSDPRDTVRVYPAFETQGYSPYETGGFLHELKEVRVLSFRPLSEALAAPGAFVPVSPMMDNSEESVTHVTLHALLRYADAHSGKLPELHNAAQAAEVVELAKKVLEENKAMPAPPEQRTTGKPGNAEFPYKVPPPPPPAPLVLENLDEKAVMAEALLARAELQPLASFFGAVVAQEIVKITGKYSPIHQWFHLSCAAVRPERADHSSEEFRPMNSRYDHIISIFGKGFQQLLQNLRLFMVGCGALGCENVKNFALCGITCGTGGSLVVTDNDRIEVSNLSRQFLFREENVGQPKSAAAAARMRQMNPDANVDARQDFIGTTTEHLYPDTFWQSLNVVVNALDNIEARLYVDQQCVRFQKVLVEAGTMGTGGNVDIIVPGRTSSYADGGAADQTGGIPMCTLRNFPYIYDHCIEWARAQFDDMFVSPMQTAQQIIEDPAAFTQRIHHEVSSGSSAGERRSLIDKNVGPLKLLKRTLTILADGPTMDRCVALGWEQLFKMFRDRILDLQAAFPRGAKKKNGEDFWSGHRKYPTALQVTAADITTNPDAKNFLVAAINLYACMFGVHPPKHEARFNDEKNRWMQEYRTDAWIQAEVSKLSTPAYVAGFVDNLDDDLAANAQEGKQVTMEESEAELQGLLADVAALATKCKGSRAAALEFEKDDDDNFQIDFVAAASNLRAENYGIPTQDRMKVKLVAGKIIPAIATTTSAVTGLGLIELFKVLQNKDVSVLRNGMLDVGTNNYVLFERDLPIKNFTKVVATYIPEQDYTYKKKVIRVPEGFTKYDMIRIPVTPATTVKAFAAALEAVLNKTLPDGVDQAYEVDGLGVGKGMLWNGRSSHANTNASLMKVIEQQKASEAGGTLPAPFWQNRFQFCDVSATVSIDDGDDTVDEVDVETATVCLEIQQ
- Assay explanation: Leishmania donovani Ubiquitin Activating Enzyme (LdE1)
- Type: functional
- Parameters: scale not given: direction of the effect not stated beside the values
- Protocol conditions: 30 µM
Entries with a potency or affinity are not part of this list.
As shown below, each of these compounds has a reported Percent Effect value.
Property name: Percent Effect (%)

[[record]]
compound = "COc1cccc(CNC(C)Cn2cccn2)c1OC (stereo unspecified)"
property_name = "Percent Effect"
value = 2.6

[[record]]
compound = "Cc1cc(CN2C[C@@H]3CCCO[C@@H]3[C@H](Nc3ccccn3)C2)no1"
property_name = "Percent Effect"
value = 8.11

[[record]]
compound = "C[C@H]1C[C@@H]2CCN(Cc3ccccn3)C[C@H]2O1"
property_name = "Percent Effect"
value = 0

[[record]]
compound = "NC(=O)N1CC2(CCNCC2)c2cc(Cl)ccc21"
property_name = "Percent Effect"
value = 1.3

[[record]]
compound = "CO[C@@H]1CC[C@H]2[C@H]1OCCN2CC1CCOCC1"
property_name = "Percent Effect"
value = 13.5

[[record]]
compound = "C[C@H]1C(=O)NC[C@H]2CN(Cc3ccccc3)C[C@H]21"
property_name = "Percent Effect"
value = -1.3

[[record]]
compound = "Cc1nc(C)c(CC(=O)N2C[C@@H]3CC[C@H](C2)N(CC2CCC2)C3)c(=O)[nH]1"
property_name = "Percent Effect"
value = 18.9

[[record]]
compound = "Cc1noc(C)c1CN1CCO[C@H]2CN(CC3CC3)C[C@H]21"
property_name = "Percent Effect"
value = 11.7

[[record]]
compound = "O=C(C1CC1)N1CCC2(CC1)OCCO2"
property_name = "Percent Effect"
value = 7.89

[[record]]
compound = "CC(C)=CCN1C(=O)[C@H]2CC[C@@H]1CN(Cc1cccnc1N)C2"
property_name = "Percent Effect"
value = 4.17

[[record]]
compound = "Cn1cc(CN2C[C@@H]3[C@@H](C2)OCC(=O)N3Cc2ccncc2)cn1"
property_name = "Percent Effect"
value = 3.9

[[record]]
compound = "CCn1cc(CN2CCCN(C(=O)Cc3cccs3)CC2)cn1"
property_name = "Percent Effect"
value = 22.8

[[record]]
compound = "CCN(CCc1ccccc1)Cn1nc(C)c2c(C)onc2c1=O"
property_name = "Percent Effect"
value = -8.11

[[record]]
compound = "COc1ccccc1C1SCC(=O)Nc2n[nH]cc21 (stereo unspecified)"
property_name = "Percent Effect"
value = 5.26

[[record]]
compound = "c1ccc(CN2CCO[C@H]3[C@H](OCCN4CCCC4)CC[C@@H]32)nc1"
property_name = "Percent Effect"
value = -2.67

[[record]]
compound = "Fc1cnc(N2CCO[C@H]3CN(CC4CCCC4)C[C@H]32)nc1"
property_name = "Percent Effect"
value = 21.3

[[record]]
compound = "Cc1cc(CN2C[C@@H]3COC[C@]3(CNC(=O)c3ccno3)C2)no1"
property_name = "Percent Effect"
value = 2.7

[[record]]
compound = "Cn1c(=O)n(C)c2cc(C3SCC(=O)Nc4ccsc43)ccc21 (stereo unspecified)"
property_name = "Percent Effect"
value = 6.67

[[record]]
compound = "O=C(Cn1ccc2c(Cl)cccc21)N1CCC2(CC1)OCCO2"
property_name = "Percent Effect"
value = 10.8

[[record]]
compound = "Cc1cccc(CN2C(=O)C[C@H]3[C@@H]2CCN3CC2CC2)n1"
property_name = "Percent Effect"
value = -22.1

[[record]]
compound = "O=C(c1cc(-n2cnnn2)ccc1Cl)N1CCC2(CC1)OCCO2"
property_name = "Percent Effect"
value = 5.26

[[record]]
compound = "O=C(COc1ccccc1)N1C[C@@H](O)[C@H](N2CCCC2)C1"
property_name = "Percent Effect"
value = 9.46

[[record]]
compound = "COCCNC(=O)[C@@]12CCO[C@@H]1CCN(Cc1c(C)noc1C)C2"
property_name = "Percent Effect"
value = 14.3

[[record]]
compound = "CC(C)(C)n1cc(C(=O)NCCCn2ccnc2)c2cccnc21"
property_name = "Percent Effect"
value = 17.3

[[record]]
compound = "c1cncc(N2CCCC3(CN(Cc4cccs4)CCO3)C2)c1 (stereo unspecified)"
property_name = "Percent Effect"
value = 8.11

[[record]]
compound = "Cc1cccc(CN2C[C@H](NS(C)(=O)=O)[C@@H]3OCCC[C@@H]32)n1"
property_name = "Percent Effect"
value = -5.33

[[record]]
compound = "O=C(Cc1ccc(F)cc1)N1CCN(CC(O)C2CC2)CC1 (stereo unspecified)"
property_name = "Percent Effect"
value = 5.48

[[record]]
compound = "Cc1oc(-c2ccco2)nc1CC(=O)N1CCN(CC(C)(C)O)CC1"
property_name = "Percent Effect"
value = 5.2

[[record]]
compound = "Cc1cc(CN2CC[C@H]3OCC[C@@]3(C(=O)NC(C)C)C2)no1"
property_name = "Percent Effect"
value = 15.6

[[record]]
compound = "Cc1noc(C)c1CN1CCCC2(CCN(C(=O)CC3CC3)C2)C1 (stereo unspecified)"
property_name = "Percent Effect"
value = 3.9

[[record]]
compound = "COCCN1C[C@@H]2[C@@H](OC)CCN(Cc3cccc(C)n3)[C@@H]2C1"
property_name = "Percent Effect"
value = 11

[[record]]
compound = "CN(Cc1cccnc1)[C@@H]1CN(CC2CC2)[C@@H]2CCCO[C@H]12"
property_name = "Percent Effect"
value = 2.67

[[record]]
compound = "Cn1cc(C(=O)N2CC[C@@H]3[C@@H]2CCN3Cc2cccnc2)cn1"
property_name = "Percent Effect"
value = 8.11

[[record]]
compound = "O=C(c1cscn1)N1CCN2C[C@H](OCc3cccnc3)C[C@H]2C1"
property_name = "Percent Effect"
value = 16

[[record]]
compound = "c1ccc(OC[C@]23COC[C@H]2CN(Cc2ccoc2)C3)nc1"
property_name = "Percent Effect"
value = 10.7

[[record]]
compound = "c1cc(CO[C@@H]2CC[C@H]3[C@H]2OCCN3CC2CCOCC2)ccn1"
property_name = "Percent Effect"
value = 16.2

[[record]]
compound = "CC(C)N1CCC2(CCN(C(=O)c3cccnc3)CC2)C1"
property_name = "Percent Effect"
value = 10.8

[[record]]
compound = "COc1ccc(Cl)cc1CC(=O)N1CCN(CCO)CC1"
property_name = "Percent Effect"
value = 10.4

[[record]]
compound = "O=C1CSC(c2ccc(O)c(Cl)c2)c2c(n(C3CCOCC3)[nH]c2=O)N1 (stereo unspecified)"
property_name = "Percent Effect"
value = 20

[[record]]
compound = "COc1ccc2c(ccn2CCN)c1"
property_name = "Percent Effect"
value = -49.3

[[record]]
compound = "O=C(Cc1csc(-c2ccco2)n1)N1CCN(CCO)CC1"
property_name = "Percent Effect"
value = 1.27

[[record]]
compound = "COc1c(Br)cc(Br)cc1CNC(C)Cn1cccn1 (stereo unspecified)"
property_name = "Percent Effect"
value = 23.4

[[record]]
compound = "O=C([C@H]1C[C@H]2OCC[C@H]2N(Cc2ccncc2)C1)N1CCCCO1"
property_name = "Percent Effect"
value = 18.7

[[record]]
compound = "Cc1cccc(CN2C[C@@H]3CCCO[C@@H]3[C@H](NS(C)(=O)=O)C2)n1"
property_name = "Percent Effect"
value = 21.3

[[record]]
compound = "COc1ccc(C(=O)C2CCCN(CCCn3cccn3)C2)c(OC)c1 (stereo unspecified)"
property_name = "Percent Effect"
value = 5.41

[[record]]
compound = "COc1ncccc1CN1C[C@@H]2COC[C@]2(COCC2CC2)C1"
property_name = "Percent Effect"
value = 1.33

